Source of measurements: PubChem BioAssay (NCI)

# Tested on: A549/ATCC NSCLC
# methodNotes: NCI-60 one-dose screen, 48 h (100 = growth as untreated, 0 = no growth, -100 = all killed)
# measurementSetup: 10 µM
# Experimental: Growth inhibition of the A549/ATCC human Non-Small Cell Lung tumor cell line is measured as a screen for anti-cancer activity. Cells are grown in 96 well plates and exposed to the test compound for 48 hours. Compounds are tested at a single concentration, which is 10^-5 M for most compounds. The reported endpoint is percent growth (GI% or GIPRCNT), where numbers from 0 - 100% represent growth inhibition, and numbers from -100% - 0 represent cell death. […]
This is part of a sample that, as a whole, favours compounds with a hit. Of some 83,000 tested, about 20% had one in any assay. Calls of active or inactive are those of the source. How the source made its calls: active means growth percent below 10; inactive means the rest. Where a SMILES comes first, the peptide text is derived from it. Bridges are numbered along the chain shown (N, C = ends). [ ]: non-standard residue; d: D form. The star is where a group is joined. ξ: configuration not given here. ξNMePhe(4-NMe2) = CNC(Cc1ccc(N(C)C)cc1)C(=O)O; Picolinoyl(3-OH) = O=C(c1ncccc1O)*; ξPip(4-oxo) = O=C1CCNC(C(=O)O)C1; Phg = N[CH](C(=O)O)c1ccccc1; Abu = CC[CH](N)C(=O)O
quantityMeasured: growth

Example cases with answers are listed next.
O=C(CCl)Nc1ccc2c(c1)C(=O)c1ccc(NC(=O)CCl)cc1C2=O: 0.12% (active)
NC(=S)N/N=C/c1ccc(N)cc1: 76% (inactive)
COc1cc2nn(-c3ccccc3N)nc2cc1OC: 95.1% (inactive)
CCC1NC(=O)C(NC(=O)c2ncccc2O)C(C)OC(=O)C(c2ccccc2)NC(=O)C2CC(=O)CCN2C(=O)C(Cc2ccc(N(C)C)cc2)N(C)C(=O)C2CCCN2C1=O (stereo unspecified) (tested in a mixture with another compound) ({Picolinoyl(3-OH)}-T[Abu]P[ξNMePhe(4-NMe2)][ξPip(4-oxo)][Phg]; ester 1-C; configuration not given here): 28.1% (inactive)
Clc1ccc(-c2n[nH]c3c2Cc2ccccc2-3)cc1Cl: 37.5% (inactive)

Tell me reported growth for CCOC(=O)c1cc(/C=C/c2cccc(Cl)c2)on1 , tested with A549/ATCC NSCLC.
104% (inactive)

Tell me reported growth for CC1(C(=O)O)NC(C(=O)O)Cc2c1[nH]c1ccccc21 (stereo unspecified) , tested with A549/ATCC NSCLC.
101% (inactive)

Tell me reported growth for CO[C@H]1C[C@@H]2CC[C@@H](C)[C@@](O)(O2)C(=O)C(=O)N2CCCC[C@H]2C(=O)O[C@H]([C@H](C)C[C@@H]2CC[C@@H](O)[C@H](OC)C2)CC(=O)[C@H](C)C=C(C)[C@@H](O)[C@@H](OC)C(=O)[C@H](C)C[C@H](C)/C=C/C=C/C=C1C , tested with A549/ATCC NSCLC.
39% (inactive)
